Sourced from patent US20250136696A1

Molecular target: T1, human B7-H7 on the cell surface (human, UniProt Q9UM44 23-414)
T1 construct: whole, on cells; also called hB7-H7; hu B7-H7
T1 sequence (looked up): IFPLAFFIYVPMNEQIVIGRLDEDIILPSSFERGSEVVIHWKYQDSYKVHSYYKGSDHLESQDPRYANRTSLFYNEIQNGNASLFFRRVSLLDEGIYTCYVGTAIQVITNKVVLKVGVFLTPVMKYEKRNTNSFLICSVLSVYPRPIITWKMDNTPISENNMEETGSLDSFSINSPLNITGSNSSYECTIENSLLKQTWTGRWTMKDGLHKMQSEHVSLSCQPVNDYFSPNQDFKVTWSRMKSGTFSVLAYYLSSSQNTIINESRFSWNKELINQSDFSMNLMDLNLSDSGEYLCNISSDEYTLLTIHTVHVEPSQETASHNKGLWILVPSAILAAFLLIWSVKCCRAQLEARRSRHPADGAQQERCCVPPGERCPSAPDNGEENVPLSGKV
Experiment: flow cytometry, HEK-293/hu B7-H7 cells
quantity name: EC50 (nM)
Entry rule: numbers only, all in nM.

Enquiry: Kindly indicate its recorded EC50. Item: PR003260 (antibody, human IgG1, kappa, V domains shown, Human IgG1; also called 70F3B1) VH: QVQLVESGGGVVQPGRSLRLPCAASGFTFSRYGMHWVRQAPGKGLEWVADIWYDGSKKYYADSVKGRFTISRDNSKNTLYLQMNSLRAEDTAVYFCTRDGGYSYGPFDYWGQGTLVTVSS VL: EIVMTQSPATLSVSPGERATLSCRASQSVSSNLAWYQQKPGQAPRLLIYYASTRAPGIPARFSGSESGTEFTLTISSLQSEDFAVYYCQQYNIWPYTFGQGTKLEIKR
Return: 1.13
